# Tested Target: AMP-activated protein kinase, AMPK (Homo sapiens) (UniProt P54646+O43741+P54619+Q9UGJ0+Q9Y478+Q13131+Q9UGI9)
# Assay Comment: AMP-dependent Kinase enzyme assay. An in vitro enzyme assay that detects ADP turnover that is directly proportional to AMPK activity. This uses naive AMPK that is activated during the assay with MK-8722
# Format: functional
# Set-up: scale not given: direction of the effect not stated beside the values
# Particulars: 30 µM
Experimental Endpoint: Percent Effect
Give the number first and the unit second.

In the examples that follow, each entry is paired with its recorded Percent Effect.
>  <Compound>
CCN(c1ccc(C(=O)N2CCCC(C)C2)cc1)S(=O)(=O)CC (configuration not stated)

>  <Observed>
8.62%

$$$$
>  <Compound>
COc1cccc(N2CCN(CCC(=O)NC3CCCC3)CC2)c1

>  <Observed>
6.03%

$$$$

Q) Name the recorded Percent Effect for CC(C)(C)c1nc(CN2CCCC2CCc2ccccc2)no1 (configuration not stated) .
A) 4.97%

Q) Name the recorded Percent Effect for O=C(NS(=O)(=O)c1cc(Cl)sc1Cl)c1cccc2c1OCCO2 .
A) 3.09%

Q) Name the recorded Percent Effect for O[C@H]1[C@H](n2cc(-c3cccnc3)nn2)c2ccccc2C12CCNCC2 .
A) -0.513%

Q) Name the recorded Percent Effect for COc1ccc(CNC(=O)N(Cc2ccc(F)cc2F)C2CC2)cn1 .
A) -2.76%

Q) Name the recorded Percent Effect for Oc1nc(N2CCOCC2)nc2c1CCN(Cc1cccnc1)CC2 .
A) 7.05%

----------
# Tested Target: Sialic acid-binding Ig-like lectin 9 (Homo sapiens)
# Assay Comment: Hs-Siglec9 ALPHAscreen SOP 20170721
# Set-up: scale not given: direction of the effect not stated beside the values
# Particulars: 10 µM
Entries and their measured Percent Effect follow.
Kindly provide the numeric value in % only, without the unit symbol.

>  <Compound>
CS(=O)(=O)N1CCc2c(cccc2NC(=O)CC(F)(F)F)C1

>  <Tested Target>
Sialic acid-binding Ig-like lectin 9 (Homo sapiens)

>  <Unit Abbreviation>
%

>  <Observed>
-1.3

$$$$
>  <Compound>
Cc1ncsc1C(=O)NCCSCCCO

>  <Tested Target>
Sialic acid-binding Ig-like lectin 9 (Homo sapiens)

>  <Unit Abbreviation>
%

>  <Observed>
-2.14

$$$$

Q) Name the recorded Percent Effect for CN1CCCc2cc(CNC(=O)c3ccc(NC4CC4)nc3)ccc21 .
A) 6.12

Q) Name the recorded Percent Effect for Cc1noc(C)c1CN(C)CC1CCCN1c1cccnn1 (stereo not given) .
A) -2.33

Q) Name the recorded Percent Effect for CCc1nc(CN(C)CC2CCN(CC(C)O)CC2)no1 (stereo not given) .
A) 0.164

Q) Name the recorded Percent Effect for CC(=O)N1CCC(C(=O)c2cc(C)cnc2N)CC1 .
A) 3.51

Q) Name the recorded Percent Effect for CNc1nc(CNC(=O)Nc2cccc(F)c2)cs1 .
A) 12.7

Q) Name the recorded Percent Effect for CNc1cc(CNC(=O)c2ccccc2)nc(-c2ccncc2)n1 .
A) -2.66

Q) Name the recorded Percent Effect for CNC(=O)[C@@]12CCC3(CCN(C(C)=O)CC3)[C@@H]1CN(S(C)(=O)=O)C2 .
A) -2.81

----------
# Tested Target: Tyrosyl-tRNA synthetase, putative (Trypanosoma cruzi (strain CL Brener)) (UniProt Q4DSP6)
# Sequence (Q4DSP6 as listed by the source): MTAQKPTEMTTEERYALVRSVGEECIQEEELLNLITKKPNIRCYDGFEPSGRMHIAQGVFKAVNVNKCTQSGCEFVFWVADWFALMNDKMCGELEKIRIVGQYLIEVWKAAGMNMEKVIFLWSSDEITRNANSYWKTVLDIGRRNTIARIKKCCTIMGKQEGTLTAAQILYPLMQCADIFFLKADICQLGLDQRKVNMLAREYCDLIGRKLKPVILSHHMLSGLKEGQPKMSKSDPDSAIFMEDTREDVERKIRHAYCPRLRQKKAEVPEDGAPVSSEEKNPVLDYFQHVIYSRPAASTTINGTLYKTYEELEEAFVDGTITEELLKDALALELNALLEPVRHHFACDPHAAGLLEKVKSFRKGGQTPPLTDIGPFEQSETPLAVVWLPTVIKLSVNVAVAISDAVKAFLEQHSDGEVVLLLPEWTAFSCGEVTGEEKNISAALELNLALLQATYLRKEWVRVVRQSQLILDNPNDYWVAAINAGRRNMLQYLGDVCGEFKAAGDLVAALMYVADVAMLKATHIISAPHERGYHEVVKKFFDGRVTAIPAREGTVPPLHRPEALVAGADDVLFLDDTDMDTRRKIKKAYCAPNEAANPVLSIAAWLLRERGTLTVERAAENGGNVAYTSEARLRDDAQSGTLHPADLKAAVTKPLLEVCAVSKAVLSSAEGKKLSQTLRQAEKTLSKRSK
# Assay Comment: Trypanosoma cruzi tyrosyl tRNA synthetase (TcYRS) _High Tyrosine SOP; note: in the data most compounds retested in dose-response had high values
# Type: functional
# Set-up: scale not given: direction of the effect not stated beside the values
# Particulars: 30 µM
Experimental Endpoint: Percent Effect (%)
Kindly provide the numeric value in % only, without the unit symbol.

In the examples that follow, each entry is paired with its recorded Percent Effect.
>  <Compound>
O=C(CCC(=O)N1CCCC1c1cccs1)N1CCc2sccc2C1 (centres undefined)

>  <Unit Abbreviation>
%

>  <Percent Effect>
3.45

$$$$
>  <Compound>
CCN(C(=O)COC)C(c1cccnc1)c1ccc2c(c1)CCO2 (centres undefined)

>  <Unit Abbreviation>
%

>  <Percent Effect>
9.38

$$$$
>  <Compound>
CCc1noc(CN2CCCC2c2noc(C3CC3)n2)n1 (centres undefined)

>  <Unit Abbreviation>
%

>  <Percent Effect>
9.36

$$$$

Q) Name the recorded Percent Effect for O=C(NCC1CC1)[C@@H]1CCO[C@@H]2CCN(Cc3ccco3)C[C@H]21 .
A) -3.12

Q) Name the recorded Percent Effect for COC[C@@]12CCO[C@@H]1CCN(Cc1ccccc1F)C2 .
A) 4.17

----------
Entries and their measured Percent Effect follow.
# Tested Target: Arginase-2, mitochondrial (Homo sapiens)
# Assay Comment: in vitro enzyme assay to detect the production of urea directly proportional to the activity of Arginase II; note: in the data most compounds retested in dose-response had high values
# Type: functional
# Design: scale not given: direction of the effect not stated beside the values
# Particulars: 33.3 µM
Kindly provide the numeric value in % only, without the unit symbol.

>  <Compound>
CC(C)c1ccc(OCCC(=O)N2CCC(CC(N)=O)CC2)cc1

>  <Observed>
-2.68

$$$$
>  <Compound>
CCc1ncc2c(n1)CN(Cc1nc(-c3ccccn3)no1)CC2

>  <Observed>
1.44

$$$$
>  <Compound>
CCC(=O)Nc1ccc(C(C)NC(=O)COCCOC)cc1 (stereo unspecified)

>  <Observed>
-3.55

$$$$
>  <Compound>
Cc1noc(C)c1C(=O)NCC(O)c1ccc(F)cc1F (stereo unspecified)

>  <Observed>
1.66

$$$$
>  <Compound>
CC(=O)N1CCCN(C(=O)c2cnc3n[nH]c(C)c3c2)CC1

>  <Observed>
3.96

$$$$
>  <Compound>
COC1CCN(C(=O)CCc2c(C)nc3ccnn3c2C)CC1

>  <Observed>
5.4

$$$$
>  <Compound>
Cc1cc(C)c(CNC(=O)N2CCCC2c2cccn2C)c(=O)[nH]1 (stereo unspecified)

>  <Observed>
3.66

$$$$
>  <Compound>
Cc1cc(N2CCCN(C(=O)Cc3ccc(O)c(Cl)c3)CC2)ccn1

>  <Observed>
0.399

$$$$
>  <Compound>
COCCN(C)CCN1CC2(CCN(C(=O)C3CCOC3)CC2)OC1=O (stereo unspecified)

>  <Observed>
-12.4

$$$$
>  <Compound>
CN(C)c1ccc(C(=O)N2CCN(C(=O)N3CCCCC3)CC2)nn1

>  <Observed>
-3.92

$$$$

Q) Please provide the recorded Percent Effect for O=C(NCC1CC1)Nc1cccc(N2CCN(CC3CC3)CC2)c1 , tested on Arginase-2, mitochondrial (Homo sapiens).
A) 1.24

Q) Please provide the recorded Percent Effect for COc1cccc(OCC(=O)NS(=O)(=O)c2ccc(C)s2)c1 , tested on Arginase-2, mitochondrial (Homo sapiens).
A) 5.32

Q) Please provide the recorded Percent Effect for FC1(F)CCN(Cc2ccncc2)CC12CCN(Cc1ccccn1)C2 (stereo unspecified) , tested on Arginase-2, mitochondrial (Homo sapiens).
A) 0.319

Q) Please provide the recorded Percent Effect for CC(C)Nc1nc(N2CCCC2)nc2c1CN(C(C)C)CC2 , tested on Arginase-2, mitochondrial (Homo sapiens).
A) -29.6

Q) Please provide the recorded Percent Effect for CC(C)C(C(=O)N1CCC(Nc2cccnn2)CC1)n1cncn1 (stereo unspecified) , tested on Arginase-2, mitochondrial (Homo sapiens).
A) 1.2

Q) Please provide the recorded Percent Effect for Cc1nn(-c2ccccc2)nc1C(=O)N1CCCC1c1cnn(C)c1 (stereo unspecified) , tested on Arginase-2, mitochondrial (Homo sapiens).
A) -4.99

----------
Entries and their measured Percent Effect follow.
# Tested Target: Sialic acid-binding Ig-like lectin 9 (Homo sapiens)
# Assay Comment: Hs-Siglec9 ALPHAscreen SOP 20170721
# Set-up: scale not given: direction of the effect not stated beside the values
# Particulars: 10 µM
Kindly provide the numeric value in % only, without the unit symbol.

>  <Compound>
O=S(=O)(c1ccccc1)N1CCCN(CCCn2ccnc2)CC1

>  <Experimental Endpoint>
Percent Effect

>  <Unit Abbreviation>
%

>  <Observed>
24.8

$$$$

Q) Name the recorded Percent Effect for Cc1cc(=O)n(CC(=O)Nc2ccc(C(N)=O)cc2)nc1C .
A) 15.7

Q) Name the recorded Percent Effect for O=C(NS(=O)(=O)c1cc(Cl)sc1Cl)c1cccc2c1OCCO2 .
A) -2.91

Q) Name the recorded Percent Effect for Cc1ccsc1C(=O)N1CC(C(=O)N2CCOCC2)C2(CCOCC2)C1 (centres undefined) .
A) -9.65

----------
# Tested Target: Protein translocase subunit SecA (Escherichia coli (strain K12)) (UniProt P10408)
# Sequence (P10408 whole entry): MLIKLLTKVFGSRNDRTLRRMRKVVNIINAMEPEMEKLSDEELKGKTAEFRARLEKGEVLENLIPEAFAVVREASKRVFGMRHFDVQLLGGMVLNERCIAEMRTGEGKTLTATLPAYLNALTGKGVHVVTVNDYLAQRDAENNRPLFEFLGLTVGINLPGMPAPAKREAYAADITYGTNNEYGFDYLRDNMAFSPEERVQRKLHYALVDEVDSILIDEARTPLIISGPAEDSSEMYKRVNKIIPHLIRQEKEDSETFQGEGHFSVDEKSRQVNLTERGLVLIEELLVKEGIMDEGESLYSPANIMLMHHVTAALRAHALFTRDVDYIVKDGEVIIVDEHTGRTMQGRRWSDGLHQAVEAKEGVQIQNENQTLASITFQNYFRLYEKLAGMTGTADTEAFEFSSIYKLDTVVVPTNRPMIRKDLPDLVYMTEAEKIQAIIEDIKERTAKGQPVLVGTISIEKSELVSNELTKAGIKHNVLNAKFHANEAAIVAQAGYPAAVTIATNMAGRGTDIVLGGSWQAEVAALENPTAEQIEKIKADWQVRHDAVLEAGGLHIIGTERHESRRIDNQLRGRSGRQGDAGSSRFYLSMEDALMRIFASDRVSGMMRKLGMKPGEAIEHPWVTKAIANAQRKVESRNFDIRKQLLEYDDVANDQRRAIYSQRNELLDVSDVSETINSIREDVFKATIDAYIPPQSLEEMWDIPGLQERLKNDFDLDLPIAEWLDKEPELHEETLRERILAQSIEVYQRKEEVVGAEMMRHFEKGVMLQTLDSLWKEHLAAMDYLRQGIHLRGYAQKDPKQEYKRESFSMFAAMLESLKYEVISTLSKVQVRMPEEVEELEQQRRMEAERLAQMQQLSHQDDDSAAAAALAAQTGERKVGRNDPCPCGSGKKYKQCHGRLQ
# Assay Comment: Assay to Identify E. coli SecA ATPase Inhibitors
# Type: functional
# Parameters: scale not given: direction of the effect not stated beside the values
# Particulars: 30 µM
Entries with a potency or affinity are not part of this list.
Experimental Endpoint: Percent Effect

In the examples that follow, each entry is paired with its recorded Percent Effect.
>  <Molecule>
COCC1CC2(CCN(C(=O)c3ccc(OC)c(Cl)c3)CC2)CO1 (stereo unspecified)

>  <Percent Effect>
4.75%

$$$$
>  <Molecule>
Cc1ncc(-c2nc3cc(S(=O)(=O)N4CCCC4)ccc3n2C)cn1

>  <Percent Effect>
-5.62%

$$$$
>  <Molecule>
CN(C)c1ccc(CCCNC(=O)Nc2ccc(C#N)cc2)cc1

>  <Percent Effect>
1.86%

$$$$
>  <Molecule>
CS(=O)(=O)CCC(=O)NC1(c2cccc(Br)c2)CC1

>  <Percent Effect>
-2.11%

$$$$
>  <Molecule>
CCn1cc2c(n1)CN(Cc1ccncc1)CC2COCC1CC1 (stereo unspecified)

>  <Percent Effect>
-3.54%

$$$$

For the next question, use this molecule.
Q) Name the recorded Percent Effect for CCN1CCC(CNCc2cc(OC)ccc2OC)C1 (stereo unspecified) .
A) -3.32%
